Each entry below carries its reported inhibition.
- Assay Target: Bifunctional protein GlmU (Mycobacterium tuberculosis (strain ATCC 25618 / H37Rv))
- Test Protocol: inhibition of mycobacterial GlmU enzyme – biochemical, glucosamine-1-phosphate acetyltransferase (AID 1376);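 further: 0% = complete reaction with vehicle and 100% = reaction without substrate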
- Conditions Used: M. tuberculosis GlmU acetyltransferase enzyme assay; active compounds read high;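 tested at 30 µM in the primary screen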
Screen size: about 220,000 compounds; about 530 (0.24%) were called active. Shown is part of a subset that was picked to be rich in actives. Results with a measured potency or affinity are listed apart.
Give a bare numeral; the unit % is implied.

Measured inhibition of C=CCn1c(=O)c2ccccc2n2c(SCC(N)=O)nnc12 : -2.87

====

- Assay Target: Bifunctional protein GlmU (Mycobacterium tuberculosis (strain ATCC 25618 / H37Rv))
- Test Protocol: inhibition of mycobacterial GlmU enzyme – biochemical, glucosamine-1-phosphate acetyltransferase (AID 1376);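 further: 0% = complete reaction with vehicle and 100% = reaction without substrate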
- Conditions Used: M. tuberculosis GlmU acetyltransferase enzyme assay; active compounds read high;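 tested at 30 µM in the primary screen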
In all, about 220,000 compounds went through this assay and about 530 (0.24%) were called active. Many of the other results were omitted from the sample, so actives are more common in it than they were. Potency and affinity values are given separately.
inhibition: recorded values

CC(=O)c1ccc(N2CCN(C(=O)/C=C/c3ccc4ccccc4n3)CC2)cc1 = 0.1% (inactive)

// field: inhibition; key: C/C(=N\N1CCN(C)CC1)c1ccc(Cl)c(Cl)c1 ; value = -1.93% (inactive)

Form field inhibition, entry COc1ccc(/C=C/C(=O)Nc2nnc(C(C)C)s2)cc1OC : 4.06% (inactive)

Origin of the recorded values: PubChem BioAssay AID1376
